Biological target: Integrin alpha-5/beta-1 (Homo sapiens, UniProt P05556+P08648)
Sequence (P05556 21-798 limits assumed): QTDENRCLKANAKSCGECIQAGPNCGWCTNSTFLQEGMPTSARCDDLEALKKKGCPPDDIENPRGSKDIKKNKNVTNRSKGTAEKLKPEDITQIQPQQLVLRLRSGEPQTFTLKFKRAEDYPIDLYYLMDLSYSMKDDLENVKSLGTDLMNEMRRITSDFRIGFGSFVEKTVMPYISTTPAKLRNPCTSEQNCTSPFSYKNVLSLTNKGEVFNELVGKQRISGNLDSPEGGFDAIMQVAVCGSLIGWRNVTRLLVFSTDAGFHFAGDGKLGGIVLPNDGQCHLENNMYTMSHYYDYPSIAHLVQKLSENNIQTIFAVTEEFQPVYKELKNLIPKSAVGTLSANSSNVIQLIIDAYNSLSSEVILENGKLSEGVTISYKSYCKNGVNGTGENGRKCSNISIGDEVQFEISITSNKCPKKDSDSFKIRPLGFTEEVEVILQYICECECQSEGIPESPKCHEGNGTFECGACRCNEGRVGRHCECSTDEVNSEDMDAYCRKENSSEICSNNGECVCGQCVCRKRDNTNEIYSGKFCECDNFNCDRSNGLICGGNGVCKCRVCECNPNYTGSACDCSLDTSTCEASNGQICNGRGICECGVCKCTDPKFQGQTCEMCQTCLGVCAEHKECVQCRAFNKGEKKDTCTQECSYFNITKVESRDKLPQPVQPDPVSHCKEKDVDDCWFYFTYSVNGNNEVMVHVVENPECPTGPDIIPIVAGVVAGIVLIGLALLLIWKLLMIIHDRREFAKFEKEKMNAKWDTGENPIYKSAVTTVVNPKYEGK
Sequence (P08648 42-894 limits assumed): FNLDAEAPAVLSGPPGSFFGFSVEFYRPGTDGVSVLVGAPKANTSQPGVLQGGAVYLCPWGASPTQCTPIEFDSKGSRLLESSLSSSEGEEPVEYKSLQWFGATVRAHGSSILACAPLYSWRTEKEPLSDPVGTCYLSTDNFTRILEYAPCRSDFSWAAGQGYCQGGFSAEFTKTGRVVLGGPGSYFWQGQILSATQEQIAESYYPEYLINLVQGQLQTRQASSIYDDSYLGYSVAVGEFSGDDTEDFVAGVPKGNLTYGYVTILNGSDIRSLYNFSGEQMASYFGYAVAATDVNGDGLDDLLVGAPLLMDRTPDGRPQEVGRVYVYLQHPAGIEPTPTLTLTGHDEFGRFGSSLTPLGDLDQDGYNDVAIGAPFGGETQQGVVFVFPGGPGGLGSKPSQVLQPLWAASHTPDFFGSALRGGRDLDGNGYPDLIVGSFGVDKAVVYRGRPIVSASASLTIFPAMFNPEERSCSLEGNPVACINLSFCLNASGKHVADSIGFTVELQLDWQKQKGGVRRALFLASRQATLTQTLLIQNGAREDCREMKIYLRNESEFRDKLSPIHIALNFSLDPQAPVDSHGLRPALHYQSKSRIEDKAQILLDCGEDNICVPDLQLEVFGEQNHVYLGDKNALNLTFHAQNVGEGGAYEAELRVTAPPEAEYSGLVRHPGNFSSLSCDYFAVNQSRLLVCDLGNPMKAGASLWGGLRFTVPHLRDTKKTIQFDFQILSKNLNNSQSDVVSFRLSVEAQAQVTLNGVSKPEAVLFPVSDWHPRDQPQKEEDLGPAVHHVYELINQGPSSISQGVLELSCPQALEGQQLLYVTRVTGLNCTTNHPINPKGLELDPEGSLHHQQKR
Sequence (P08648 895-1049 limits assumed): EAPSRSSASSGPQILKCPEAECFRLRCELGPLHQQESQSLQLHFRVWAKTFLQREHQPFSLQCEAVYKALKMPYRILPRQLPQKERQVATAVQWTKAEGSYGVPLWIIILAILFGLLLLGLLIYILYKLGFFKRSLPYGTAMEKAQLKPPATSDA
Assay: Antagonist activity at integrin alpha5beta1 in human K562 cells assessed as inhibition of cell adhesion
Assay type: functional, cell-based
Listed here: items and their measured pIC50.
// pIC50 is dimensionless: -log10 of concentration (M)

Record excerpt, results attached:
| COMPOUND | ASSAYED SYSTEM | pIC50 |
| --- | --- | --- |
| CNc1cccc(CCOc2ccc(C[C@H](NC(=O)C3CCCCC3C)C(=O)O)cc2)n1 (some centres undefined) | Integrin alpha-5/beta-1 (Homo sapiens, UniProt P05556+P08648) | 7.15 |
| CNc1cccc(CCOc2ccc(C[C@H](NC(=O)c3c(C)cc(C)cc3C)C(=O)O)cc2)n1 | Integrin alpha-5/beta-1 (Homo sapiens, UniProt P05556+P08648) | 7.66 |
| CNc1cccc(CCOc2ccc(C[C@H](NC(=O)c3c(Cl)cccc3Cl)C(=O)O)cc2C)n1 | Integrin alpha-5/beta-1 (Homo sapiens, UniProt P05556+P08648) | 7.09 |
| CNc1cccc(CCOc2ccc(C[C@H](NC(=O)c3c(Cl)cccc3Cl)C(=O)O)nc2)n1 | Integrin alpha-5/beta-1 (Homo sapiens, UniProt P05556+P08648) | 7.59 |
| O=C(N[C@@H](Cc1ccc(OCCCNc2ccccn2)cc1)C(=O)O)c1c(Cl)cccc1Cl | Integrin alpha-5/beta-1 (Homo sapiens, UniProt P05556+P08648) | 6.92 |
| CNc1cccc(CCOc2ccc(C[C@H](NC(=O)c3ccc(F)cc3Cl)C(=O)O)cc2)n1 | Integrin alpha-5/beta-1 (Homo sapiens, UniProt P05556+P08648) | 7.48 |

Q: Give me measured pIC50, please, for this compound: CNc1cccc(CCOc2ccc(C[C@H](NC(=O)c3ccccc3Cl)C(=O)O)cc2)n1
Ans: 7.38

* * *

Molecular target: Fibronectin receptor (Integrin alpha-5/beta-1 and alpha-V/beta-3) (Homo sapiens, UniProt P05106+P05556+P06756+P08648)
Test: Antagonist activity at integrin alphavbeta3alpha5beta1 in human A375M cells assessed as inhibition of cell adhesion to fibronectin in presence of Mg2+
Listed here: items and their measured IC50.
The answer consists of two parts: a number and, after it, its unit.

Record excerpt, results attached:
| INPUT SMILES | MEASUREMENT TYPE | OBSERVED |
| --- | --- | --- |
| CNc1cccc(CCOc2ccc(C[C@H](NC(=O)c3ccccc3Cl)C(=O)O)cc2)n1 | IC50 | 540 nM |
| CNc1cccc(CCOc2ccc(C[C@H](NC(=O)c3ccccc3)C(=O)O)cc2)n1 | IC50 | 7400 nM |
| CNc1cccc(CCOc2ccc(C[C@H](NC(=O)c3ccc(F)cc3Cl)C(=O)O)cc2)n1 | IC50 | 440 nM |

Q: Give me measured IC50, please, for this compound: CNc1cccc(CCOc2ccc(C[C@H](NC(=O)c3ccc(F)cc3C3CC3)C(=O)O)cc2)n1
Ans: 510 nM

Q: Give me measured IC50, please, for this compound: CCc1cc(F)ccc1C(=O)N[C@@H](Cc1ccc(OCCc2cccc(NC)n2)cc1)C(=O)O
Ans: 340 nM

Q: Give me measured IC50, please, for this compound: CNc1cccc(CCOc2ccc(C[C@H](NC(=O)c3c(C)cccc3C)C(=O)O)cc2)n1
Ans: 400 nM

Q: Give me measured IC50, please, for this compound: COc1ccc([C@H](CC(=O)O)N2CCN(CCCc3ccc4c(n3)NCCC4)C2=O)cn1
Ans: 810 nM

Q: Give me measured IC50, please, for this compound: CNc1cccc(CCOc2ccc(C[C@H](NC(=O)c3c(C)cc(C)cc3C)C(=O)O)cc2)n1
Ans: 380 nM

Q: Give me measured IC50, please, for this compound: CNc1cccc(CCOc2ccc(C[C@H](NC(=O)c3c(Cl)cccc3Cl)C(=O)O)cc2)n1
Ans: 230 nM

Q: Give me measured IC50, please, for this compound: CNc1cccc(CCOc2ccc(C[C@H](NC(=O)c3sccc3Cl)C(=O)O)cc2)n1
Ans: 2900 nM

Q: Give me measured IC50, please, for this compound: CNc1cccc(CCOc2ccc(C[C@H](NC(=O)c3c(Cl)cccc3Cl)C(=O)O)cc2F)n1
Ans: 330 nM

Q: Give me measured IC50, please, for this compound: CNc1cccc(CCOc2ccc(C[C@H](NC(=O)C3(C)CCCCC3)C(=O)O)cc2)n1
Ans: 830 nM

Q: Give me measured IC50, please, for this compound: CNc1cccc(CCOc2ccc(C[C@H](NC(=O)c3c(Cl)cccc3Cl)C(=O)O)nc2)n1
Ans: 510 nM

Q: Give me measured IC50, please, for this compound: CNc1cccc(CCOc2ccc(C[C@H](NC(=O)c3c(Cl)cncc3Cl)C(=O)O)cc2)n1
Ans: 130 nM

* * *

Biological target: Fibronectin receptor (Integrin alpha-5/beta-1 and alpha-V/beta-3) (Homo sapiens, UniProt P05106+P05556+P06756+P08648)
Experiment: Antagonist activity at integrin alphavbeta3alpha5beta1 in human A375M cells assessed as inhibition of cell adhesion to fibronectin in presence of Mg2+
MEASUREMENT TYPE: log10 IC50 (log10 of the value in nM)
Hey, these are logged values: log10 of IC50, nM being the unit before logging.

| INPUT SMILES | log10 IC50 |
| --- | --- |
| CNc1cccc(CCOc2ccc(C[C@H](NC(=O)c3c(Cl)cccc3Cl)C(=O)O)cc2C)n1 | 2.81 |
| CNc1cccc(CCOc2c(C)cc(C[C@H](NC(=O)c3c(Cl)cccc3Cl)C(=O)O)cc2C)n1 | 3.94 |
| CNc1cccc(CCOc2ccc(C[C@H](NC(=O)c3ccc(F)cc3C)C(=O)O)cc2)n1 | 2.71 |
| O=C(N[C@@H](Cc1ccc(OCCCNc2ccccn2)cc1)C(=O)O)c1c(Cl)cccc1Cl | 3.40 |
| CNc1cccc(CCOc2ccc(C[C@H](NC(=O)c3c(Cl)cccc3Cl)C(=O)O)cn2)n1 | 3.08 |

Q: Give me measured log10 IC50, please, for this compound: CNc1cccc(CCCc2ccc(C[C@H](NC(=O)c3c(Cl)cccc3Cl)C(=O)O)s2)n1
Ans: 2.90
